Kindly supply the reported GLUCOSE values for the records listed here.
- Species on record: Rattus norvegicus
- Experiment summary: DrugMatrix - Regimen: Daily Repeat
- Assay type: toxicity, organism-based, Sprague-Dawley
- Parameters: regimen Daily Repeat, gender Male, age 6-8 weeks
- Condition summary: in vivo, po, 10 mg/kg, 72 h, tissue Plasma, route oral GAVAGE, dose level Low, time 3 day, […]
Answers are plain numbers, in mg/dL.

[
  {
    "Molecule": "CCOC(=O)C1=C(C)NC(C)=C(C(=O)OC)C1c1cccc([N+](=O)[O-])c1 (centres undefined)",
    "Scale unit": "mg/dL",
    "Meas value": 145.33
  },
  {
    "Molecule": "COc1ccc2cc([C@H](C)C(=O)O)ccc2c1",
    "Scale unit": "mg/dL",
    "Meas value": 187.67
  },
  {
    "Molecule": "CC(C)CC(N(C)C)C1(c2ccc(Cl)cc2)CCC1 (centres undefined)",
    "Scale unit": "mg/dL",
    "Meas value": 158.33
  }
]

Query string: For the molecule COCCOC(=O)C1=C(C)NC(C)=C(C(=O)OC(C)C)C1c1cccc([N+](=O)[O-])c1 (centres undefined) , what GLUCOSE is on record?
Result string: 153.33

====

Kindly supply the reported CHOLESTEROL values for the records listed here.
- Species on record: Rattus norvegicus
- Experiment summary: DrugMatrix - Regimen: Daily Repeat
- Format: toxicity, organism-based, Sprague-Dawley
- Set-up: regimen Daily Repeat, gender Male, age 6-8 weeks
- Condition summary: in vivo, po, 0 mg/kg, 120 h, tissue Plasma, route oral GAVAGE, dose level Control, time 5 day, […]
One number for each entry, in mg/dL.

// known answers, use as guide
[
  {
    "Molecule": "COc1ccc2[nH]c([S+]([O-])Cc3ncc(C)c(OC)c3C)nc2c1 (centres undefined)",
    "Experimental endpoint": "CHOLESTEROL",
    "Meas value": 75.17
  },
  {
    "Molecule": "CC(C)(Oc1ccc(C2CCCc3ccccc32)cc1)C(=O)O (centres undefined)",
    "Experimental endpoint": "CHOLESTEROL",
    "Meas value": 68
  },
  {
    "Molecule": "Clc1ccc(Cl)cc1",
    "Experimental endpoint": "CHOLESTEROL",
    "Meas value": 88.33
  },
  {
    "Molecule": "CC/C(=C(/CC)c1ccc(O)cc1)c1ccc(O)cc1",
    "Experimental endpoint": "CHOLESTEROL",
    "Meas value": 68.83
  }
]

// for each molecule in input: emit CHOLESTEROL
1. COCCOC(=O)C1=C(C)NC(C)=C(C(=O)OC(C)C)C1c1cccc([N+](=O)[O-])c1 (centres undefined)
2. C[C@]12CC[C@@H]3c4ccc(O)cc4CC[C@H]3[C@@H]1CC[C@@H]2O
3. CC(=O)Nc1ccc(O)cc1
4. Cc1cccc(Nc2ccncc2S(=O)(=O)NC(=O)NC(C)C)c1 [TORSEMIDE]

Result string:
55.33
64.83
66.83
64.83

====

- Organism: Rattus norvegicus
- Experiment summary: DrugMatrix - Regimen: Daily Repeat
- Format: toxicity, organism-based, Sprague-Dawley
- Design: regimen Daily Repeat, gender Male, age 6-8 weeks
- Condition summary: in vivo, po, 0 mg/kg, 72 h, tissue Blood, route oral GAVAGE, dose level Control, time 3 day, vehicle 100 % WATER
Kindly supply the reported MEAN CORPUSCULAR HEMOGLOBIN values for the records listed here.
Answers are plain numbers, in pg.

// known answers, use as guide
[
  {
    "Molecule": "Cc1ncc([N+](=O)[O-])n1CCO",
    "Scale unit": "pg",
    "MEAN CORPUSCULAR HEMOGLOBIN": 24.88
  },
  {
    "Molecule": "CC(C)(C)c1ccc(C(=O)CCCN2CCC(OC(c3ccccc3)c3ccccc3)CC2)cc1",
    "Scale unit": "pg",
    "MEAN CORPUSCULAR HEMOGLOBIN": 25.62
  },
  {
    "Molecule": "CC(C)C[C@H](NC(=O)[C@@H](O)[C@H](N)Cc1ccccc1)C(=O)O",
    "Scale unit": "pg",
    "MEAN CORPUSCULAR HEMOGLOBIN": 24.53
  }
]

// for each molecule in input: emit MEAN CORPUSCULAR HEMOGLOBIN
1. Nc1ccn([C@@H]2CS[C@H](CO)O2)c(=O)n1
2. ClC(Cl)Cl [CHLOROFORM]
3. COc1cc2ncnc(Nc3ccc(F)c(Cl)c3)c2cc1OCCCN1CCOCC1
4. COC(=O)C1=C(C)NC(C)=C(C(=O)OCC(C)C)C1c1ccccc1[N+](=O)[O-] (stereo not given)

Result string:
1: 24.3; 2: 24.88; 3: 21.47; 4: 24.12

// for each molecule in input: emit MEAN CORPUSCULAR HEMOGLOBIN
1. C[N+](C)(C)CCO.[Cl-] [CHOLINE CHLORIDE]
2. C[C@@H]1C[C@@H]([C@H](O)CC2CC(=O)NC(=O)C2)C(=O)[C@@H](C)C1 [CYCLOHEXIMIDE]
3. CC(C)NCC(O)COc1cccc2ccccc12 (stereo not given)

Result string:
1: 25.23; 2: 23.68; 3: 24.35

====

- Organism: Rattus norvegicus
- Experiment summary: DrugMatrix - Regimen: Daily Repeat
- Assay type: toxicity, organism-based, Sprague-Dawley
- Design: regimen Daily Repeat, gender Male, age 6-8 weeks
- Condition summary: in vivo, po, 0 mg/kg, 120 h, tissue Blood, route oral GAVAGE, dose level Control, time 5 day, vehicle .5 % CMC
Experimental endpoint: HEMATOCRIT (%)
Give bare numbers, in %.

// known answers, use as guide
[
  {
    "Compound": "CC(C)[C@H]1CC[C@H](C(=O)N[C@H](Cc2ccccc2)C(=O)O)CC1 [NATEGLINIDE]",
    "HEMATOCRIT [%]": 35.3
  },
  {
    "Compound": "CNC(=C[N+](=O)[O-])NCCSCc1ccc(CN(C)C)o1 [RANITIDINE]",
    "HEMATOCRIT [%]": 35.28
  },
  {
    "Compound": "CC(=O)CC(c1ccccc1)c1c(O)c2ccccc2oc1=O (configuration not stated) [WARFARIN]",
    "HEMATOCRIT [%]": 35.92
  },
  {
    "Compound": "C[C@]1(Cn2ccnn2)[C@H](C(=O)O)N2C(=O)C[C@H]2S1(=O)=O [TAZOBACTAM]",
    "HEMATOCRIT [%]": 35.77
  }
]

// for each compound in input: emit HEMATOCRIT
1. CO[C@H]1/C=C/O[C@@]2(C)Oc3c(C)c(O)c4c(c3C2=O)C2=NC3(CCN(CC(C)C)CC3)NC2=C(NC(=O)/C(C)=C\C=C\[C@H](C)[C@H](O)[C@@H](C)[C@@H](O)[C@@H](C)[C@H](OC(C)=O)[C@@H]1C)C4=O [RIFABUTIN]
2. C#C[C@]1(O)CC[C@H]2[C@@H]3CCc4cc(OC)ccc4[C@H]3CC[C@@]21C [MESTRANOL]
3. C[C@](O)(CS(=O)(=O)c1ccc(F)cc1)C(=O)Nc1ccc(C#N)c(C(F)(F)F)c1 [(R)-BICALUTAMIDE]

Result string:
35.28
35.28
33.98

====

- Species on record: Rattus norvegicus
- Experiment summary: DrugMatrix - Regimen: Daily Repeat
- Format: toxicity, organism-based, Sprague-Dawley
- Parameters: regimen Daily Repeat, gender Male, age 6-8 weeks
- Condition summary: in vivo, po, 0 mg/kg, 72 h, tissue Plasma, route oral GAVAGE, dose level Control, time 3 day, vehicle .5 % CMC
Experimental endpoint: PHOSPHORUS (mg/dL)
Give bare numbers, in mg/dL.

[
  {
    "Compound": "CNC(=C[N+](=O)[O-])NCCSCc1ccc(CN(C)C)o1",
    "PHOSPHORUS [mg/dL]": 11.67
  },
  {
    "Compound": "C#C[C@]1(O)CC[C@H]2[C@@H]3CCc4cc(OC)ccc4[C@H]3CC[C@@]21C",
    "PHOSPHORUS [mg/dL]": 11.67
  },
  {
    "Compound": "C[C@](O)(CS(=O)(=O)c1ccc(F)cc1)C(=O)Nc1ccc(C#N)c(C(F)(F)F)c1 [(R)-BICALUTAMIDE]",
    "PHOSPHORUS [mg/dL]": 11.23
  },
  {
    "Compound": "CC[C@@H](CO)NCCN[C@@H](CC)CO",
    "PHOSPHORUS [mg/dL]": 11.43
  },
  {
    "Compound": "N=C(N)NC(=O)c1nc(Cl)c(N)nc1N [AMILORIDE]",
    "PHOSPHORUS [mg/dL]": 11.43
  },
  {
    "Compound": "Clc1ccc2c(c1)C(N1CCNCC1)=Nc1ccccc1O2",
    "PHOSPHORUS [mg/dL]": 11.97
  },
  {
    "Compound": "O=[N+]([O-])c1ccccc1",
    "PHOSPHORUS [mg/dL]": 12.55
  },
  {
    "Compound": "CC(C)[C@H]1CC[C@H](C(=O)N[C@H](Cc2ccccc2)C(=O)O)CC1 [NATEGLINIDE]",
    "PHOSPHORUS [mg/dL]": 12.47
  },
  {
    "Compound": "OC(CCN1CCCCC1)(c1ccccc1)C1CCCCC1 (stereo not given)",
    "PHOSPHORUS [mg/dL]": 12.4
  }
]

Next compound, please.
Query string: For the compound `CN1CCC(=C2c3ccccc3C=Cc3ccccc32)CC1` , what PHOSPHORUS is on record?
Result string: 11.68
